- protocolText: yeast display, Sf9 membrane polyspecificity reagent, FACS + sequencing; frameworks hold sequencing errors
endpointName: polyreactivity (PSR sort gate)

recordSequence | polyreactivity (PSR sort gate)
QVQLVESGGGLVQAGGSLRLSCAASGSIFFYAMGWYRQAPGKERELVAGITSGGSTYYADSVKGRFTISRDNAKNTVYLQMNSLKPEDTAVYYCAARRRGYKYTYNSWGQGTQVTVSS | high polyreactivity
QVQLVESGGGLVQAGGSLRLICADYGITFRVNAMGWYRQAPGKERELVASISRSGGSTYYADSVKGRFTISRDNAKNTVYLQMNSLKPEDTAVYYCAAAQKVLFYGRWFDYWGQCTQVTVSS | low polyreactivity
QVQLVESGGGLVQAGGSLRLSCAASGFTLLVNAMGWYRQAPGKERELVAAITSGGRTNYADSVKGRFTISRDNAKNTVYLQMNSLKPEDTAVYYCARDWGRKPDDGQQAWYEYWGQGTQVTVSS | low polyreactivity
QVQLVESGGGLVQAGGSLRLSCAASGFTLDVNAMGLYRHAPGKERELVATISWGGASRYYADSVKGRFTISRDNAKNTVYLQMNRLKPEDTAVFYCAAQFYYPDDKGGYDYWGQGTQVTVSS | low polyreactivity

Then this sequence:
Give a short answer stating reported polyreactivity (PSR sort gate) for QVQLVESGGGLVQAGGSLRLSCAASGRTFRYNTMGWYRQAPGKERELVAAITKGAASTYYADSVKGRFTISRDNAKNTVYLQMNSLKPEDTAVYYCNAVYSRIVTQKYWGQGTQVTVSS .
high polyreactivity
